# ASSAYED TARGET: CTX-M-15 (Escherichia coli)
# TEST: β-Lactamase inhibitory activity, nitrocefin hydrolysis
# PROTOCOL CONDITIONS: class (A); 30 min pre-incubation
MEASURED QUANTITY: pIC50
In plain terms, pIC50 is the concentration in mol/L turned into minus its base-10 logarithm.

Some molecules with known pIC50 results, for comparison:
Return reported pIC50; argument: O=C(O)C(F)(F)F.O=C1N2C[C@H](c3scnc3[C@H]2c2ncc[nH]2)N1OS(=O)(=O)[O-].[Na+] (relative stereo) [Example 1]
8.57

Look up pIC50 for this molecule: O=C1N2C[C@H](c3scnc3[C@H]2c2ncno2)N1OS(=O)(=O)[O-].[Na+] (relative stereo) [Example 4]
9.19

Please turn your attention to the following entry.
What value of pIC50 has been recorded for this entry: O=C(O)C(F)(F)F.O=C1N2C[C@H](c3scnc3[C@H]2c2nnc[nH]2)N1OS(=O)(=O)[O-].[Na+] (relative stereo) [Example 3]
7.55

###

# ASSAYED TARGET: SHV-1 (Klebsiella pneumoniae, UniProt P0AD64)
# TEST: β-Lactamase inhibitory activity, nitrocefin hydrolysis
MEASURED QUANTITY: IC50 (nM)
Your answer should be a plain number; it is taken to be in nM.

Looking for the measured IC50 of O=C(O)C(F)(F)F.O=C1N2C[C@H](c3scnc3[C@H]2c2nnc[nH]2)N1OS(=O)(=O)[O-].[Na+] (relative stereo) , can you help?
140

New cases:
Please give the measured IC50 for this compound: O=C1N2C[C@H](c3scnc3[C@H]2c2ncno2)N1OS(=O)(=O)[O-].[Na+] (relative stereo)
1.4

Fill in: IC50 of O=C(O)C(F)(F)F.O=C1N2C[C@H](c3scnc3[C@H]2c2ncc[nH]2)N1OS(=O)(=O)[O-].[Na+] (relative stereo) is ___
5.5

###

Quick list: IC50 per entry.
# ASSAYED TARGET: TEM-1 (Escherichia coli)
# Sequence (P62593 24-286 limits assumed): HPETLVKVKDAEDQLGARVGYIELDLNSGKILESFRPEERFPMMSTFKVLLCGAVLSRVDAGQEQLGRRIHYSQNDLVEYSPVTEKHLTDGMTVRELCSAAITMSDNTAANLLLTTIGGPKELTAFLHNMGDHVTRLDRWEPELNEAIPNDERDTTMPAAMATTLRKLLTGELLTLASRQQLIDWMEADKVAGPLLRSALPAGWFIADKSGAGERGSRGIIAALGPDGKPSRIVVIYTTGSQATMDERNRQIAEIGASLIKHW
# TEST: β-Lactamase inhibitory activity, nitrocefin hydrolysis
# PROTOCOL CONDITIONS: class (A); 30 min pre-incubation
Please reply with the bare figure in nM and do not write the unit itself.

Can you look up the measured IC50 of O=C(O)C(F)(F)F.O=C1N2C[C@H](c3scnc3[C@H]2c2ncc[nH]2)N1OS(=O)(=O)[O-].[Na+] (relative stereo) [Example 1] for me?
12

Requested read-out: IC50. Entry: O=C(O)C(F)(F)F.O=C1N2C[C@H](c3scnc3[C@H]2c2nnc[nH]2)N1OS(=O)(=O)[O-].[Na+] (relative stereo) [Example 3]
46

Consider the compound O=C1N2C[C@H](c3scnc3[C@H]2c2ncno2)N1OS(=O)(=O)[O-].[Na+] (relative stereo) [Example 4] and give its measured IC50.
1.1

###

# ASSAYED TARGET: AmpC (PAE) (Pseudomonas aeruginosa)
# TEST: biochemical
MEASURED QUANTITY: IC50 (nM)
Give the value, in units of nM, as a plain number.

Take a look at these entries with their results.
For the compound O=C1N2C[C@H](c3scnc3[C@H]2c2ncno2)N1OS(=O)(=O)[O-].[Na+] (relative stereo) , what IC50 is on record?
64

Given the entry O=C(O)C(F)(F)F.O=C1N2C[C@H](c3scnc3[C@H]2c2nnc[nH]2)N1OS(=O)(=O)[O-].[Na+] (relative stereo) , report its measured IC50.
570

---
What value of IC50 has been recorded for this entry: O=C(O)C(F)(F)F.O=C1N2C[C@H](c3scnc3[C@H]2c2ncc[nH]2)N1OS(=O)(=O)[O-].[Na+] (relative stereo)
17

###

# ASSAYED TARGET: KPC-2 (Klebsiella pneumoniae)
# TEST: β-Lactamase inhibitory activity, nitrocefin hydrolysis
# PROTOCOL CONDITIONS: class (A); 30 min pre-incubation
Here the recorded IC50 is given for each entry.
Give the quantity in nM, number only.

Examples with answers:
What does the data say about its IC50? Entry: O=C1N2C[C@H](c3scnc3[C@H]2c2ncno2)N1OS(=O)(=O)[O-].[Na+] (relative stereo)
3.2

Given O=C(O)C(F)(F)F.O=C1N2C[C@H](c3scnc3[C@H]2c2ncc[nH]2)N1OS(=O)(=O)[O-].[Na+] (relative stereo) , state its recorded IC50.
4.2

Now let's try a different one.
Given the compound O=C(O)C(F)(F)F.O=C1N2C[C@H](c3scnc3[C@H]2c2nnc[nH]2)N1OS(=O)(=O)[O-].[Na+] (relative stereo) , what is its reported IC50?
460

###

# ASSAYED TARGET: UniProt:P05364
# Sequence (P05364 21-381): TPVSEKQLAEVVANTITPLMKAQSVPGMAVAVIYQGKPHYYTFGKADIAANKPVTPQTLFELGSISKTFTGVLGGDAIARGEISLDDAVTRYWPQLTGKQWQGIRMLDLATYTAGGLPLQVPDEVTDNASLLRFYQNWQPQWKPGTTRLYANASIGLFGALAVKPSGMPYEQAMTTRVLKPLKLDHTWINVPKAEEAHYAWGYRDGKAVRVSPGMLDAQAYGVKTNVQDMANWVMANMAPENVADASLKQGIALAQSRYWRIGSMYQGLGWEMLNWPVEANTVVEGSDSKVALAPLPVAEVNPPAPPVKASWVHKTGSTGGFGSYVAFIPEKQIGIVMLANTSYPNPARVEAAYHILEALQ
MEASURED QUANTITY: pIC50
The scale used: pIC50 is minus the common logarithm of the concentration in molar units.

Lookup: pIC50 / UniProt:P05364 / O=C(O)C(F)(F)F.O=C1N2C[C@H](c3scnc3[C@H]2c2ncc[nH]2)N1OS(=O)(=O)[O-].[Na+] (relative stereo)
9.43

Provide value of pIC50 for this record tested with UniProt:P05364: O=C(O)C(F)(F)F.O=C1N2C[C@H](c3scnc3[C@H]2c2nnc[nH]2)N1OS(=O)(=O)[O-].[Na+] (relative stereo)
7.89

Any idea what pIC50 came out for O=C1N2C[C@H](c3scnc3[C@H]2c2ncno2)N1OS(=O)(=O)[O-].[Na+] (relative stereo) on UniProt:P05364?
8.96

###

# ASSAYED TARGET: CMY-37 (Citrobacter freundii)
# TEST: β-Lactamase inhibitory activity, nitrocefin hydrolysis
# Type: biochemical
# PROTOCOL CONDITIONS: class (C); 30 min pre-incubation; read-out: IC50 β-lactamase CMY-37
MEASURED QUANTITY: IC50 (nM)
Give the quantity in nM, number only.

I'd like to know its IC50. The compound in question is O=C1N2C[C@H](c3scnc3[C@H]2c2ncno2)N1OS(=O)(=O)[O-].[Na+] (relative stereo) [Example 4]
3.4

###

Measured IC50 values are reported for all entries that follow.
# ASSAYED TARGET: CMY-37 (Citrobacter freundii)
# TEST: β-Lactamase inhibitory activity, nitrocefin hydrolysis
# Type: biochemical
Unit nM implied. Number only.

Item O=C(O)C(F)(F)F.O=C1N2C[C@H](c3scnc3[C@H]2c2nnc[nH]2)N1OS(=O)(=O)[O-].[Na+] (relative stereo) [Example 3] has what recorded IC50?
30

Please look at the following compound next.
Give its IC50 value. Item: O=C(O)C(F)(F)F.O=C1N2C[C@H](c3scnc3[C@H]2c2ncc[nH]2)N1OS(=O)(=O)[O-].[Na+] (relative stereo) [Example 1]
0.63

###

# ASSAYED TARGET: OXA-11 (Pseudomonas aeruginosa)
# Sequence (Q06778 21-266): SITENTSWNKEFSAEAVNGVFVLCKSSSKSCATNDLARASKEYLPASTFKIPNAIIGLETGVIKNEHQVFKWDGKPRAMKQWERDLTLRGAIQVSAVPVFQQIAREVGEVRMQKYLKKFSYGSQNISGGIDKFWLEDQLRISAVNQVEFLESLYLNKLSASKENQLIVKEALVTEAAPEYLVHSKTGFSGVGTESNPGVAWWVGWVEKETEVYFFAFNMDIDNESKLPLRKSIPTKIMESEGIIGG
# TEST: β-Lactamase inhibitory activity, nitrocefin hydrolysis
The entries below are paired with their reported pIC50.
Quick note: pIC50 values are minus log10 of concentrations in mol/L.

Fill in the blank: the reported pIC50 of O=C(O)C(F)(F)F.O=C1N2C[C@H](c3scnc3[C@H]2c2nnc[nH]2)N1OS(=O)(=O)[O-].[Na+] (relative stereo) is ____.
6.72

Suppose we examine the compound O=C1N2C[C@H](c3scnc3[C@H]2c2ncno2)N1OS(=O)(=O)[O-].[Na+] (relative stereo) ; what pIC50 value has been reported?
8.19

State the recorded pIC50 for this entry: O=C(O)C(F)(F)F.O=C1N2C[C@H](c3scnc3[C@H]2c2ncc[nH]2)N1OS(=O)(=O)[O-].[Na+] (relative stereo)
6.39
